# test: Particle size and polydispersity index of nanoparticle compositions (Zetasizer Nano ZS)
# Type: physicochemical
# condition set: Table 1A; lipid:DSPC:cholesterol:PEG-DMG 50:10:38.5:1.5 mol %
property name: Size (nm)

INSERT INTO results (smiles_input, measured_number) VALUES
  ('CCCCCCCCCOC(=O)CCCCCCCN(CCCCCCCC(=O)OC(CCCCCCCC)CCCCCCCC)CCN1CCN(C)CC1', 91.7),
  ('CCCCCCCCC(CCCCCCCC)OC(=O)CCCCCCCN(C)CCCCCCCCCCCC(=O)OCCCCC', 63.1),
  ('CCCCCCCCCOC(=O)CCCCCCCN(CCCCCCCC(=O)OC(CCCCCCCC)CCCCCCCC)CCCNC(=O)NC', 83.7),
  ('CCCCCCCCC(CCCCCCCC)OC(=O)CCCCCCCN(CCO)CCCCCC(=O)N(C)CCCCCCCC', 97.0),
  ('CCCCCCCCCOC(=O)CCCCCCCN(CCCCCCCC(=O)OC(CCCCCCCC)CCCCCCCC)CCOCCO', 92.9),
  ('CCCCCCCCCCCOC(=O)CCCCCN(CCO)CCCCCC(=O)OCCCCCCCCCCC', 91.3),
  ('CCCCCCCCCOC(=O)CCCCCCCN(CCCCCCCC(=O)OC(CCCCCCCC)CCCCCCCC)CCOCCN(C)C', 85.2);

----------
Reported Total Flux, Liver by item:
# Tested on: modified luciferase
# test: Luciferase expression in liver, lung, spleen and femur 6 hours after intravenous administration to mice
# Type: in vivo
# condition set: liver, 6 hours after intravenous 0.5 mpk, mice
property name: Total Flux, Liver

INSERT INTO assay_data (compound, measured_number) VALUES
  ('CCCCCCCCC(CCCCCCCC)OC(=O)CCCCCCCN(CCO)CCCCCC(=O)N(C)CCCCCCCC', '7.24E+06'),
  ('CCCCCCCCC(CCCCCCCC)OC(=O)CCCCCCCN(CCO)CCCCCCCC(=O)OCC1CC1CCCCCC (stereo not shown)', '1.22E+10'),
  ('CCCCCCCCCCCCCCCCCCN(CCO)CCCCCCCC(=O)OC(CCCCCCCC)CCCCCCCC', '4.02E+08'),
  ('CCCCCCCCC(CCCCCCCC)OC(=O)CCCCCCCN(CCO)CCCC(=O)OC(CCCCCC)CCCCCCCC (stereo not shown)', '7.93E+08');

----------
# Tested on: modified luciferase
# test: Luciferase expression in liver, lung, spleen and femur 6 hours after intravenous administration to mice
# Assay type: in vivo
# condition set: liver, 6 hours after intravenous 0.5 mpk, mice
# Protocol: The efficacy of the nanoparticle compositions presented in Table 1A was further evaluated by measuring the expression of modified luciferase in the liver, lung, spleen, and femur upon administration of a given composition. Formulations were administered intravenously to mice (n=3) at a dosage of 0.5 mpk and bioluminescence measured after 6 hours. The standard MC3 formulation and a PBS control were also tested. […]
Reported Total Flux, Liver by item:
property name: Total Flux, Liver

INSERT INTO results (compound, tgt, property_name, measured_number) VALUES
  ('CCCCCCCCCOC(=O)CCCCCCCN(CCO)CCCCCCCC(=O)OC(CCCCCC)CCCCCCCC (centres unmarked)', 'modified luciferase', 'Total Flux, Liver', '8.52E+09'),
  ('CCCCCCCCCOC(=O)CCCCCCCN(C)CCCCCCCC(=O)OC(CCCCCCCC)CCCCCCCC', 'modified luciferase', 'Total Flux, Liver', '2.50E+08'),
  ('CCCCCCCCCOC(=O)CCCCCCCN(CCO)CCN(CCO)CCCCCCCC(=O)OC(CCCCCCCC)CCCCCCCC', 'modified luciferase', 'Total Flux, Liver', '1.13E+06'),
  ('CCCCCCCCCOC(=O)CCCCCCCN(CCO)CCCCCCC(=O)OCC(CCCCCCCC)CCCCCCCC', 'modified luciferase', 'Total Flux, Liver', '1.76E+09'),
  ('CCCCCCCCCOC(=O)CCCCCCCN(CCO)CCCCCCCC(=O)Oc1ccc(CCCCC)c(CCCCC)c1', 'modified luciferase', 'Total Flux, Liver', '1.72E+08'),
  ('CCCCCCCC/C=C\CCCCCCCCN(CCO)CCCCCCCC(=O)OC(CCCCCCCC)CCCCCCCC', 'modified luciferase', 'Total Flux, Liver', '5.17E+09'),
  ('CCCCCCCCCOC(=O)CCCN(CCO)CCCCCCCC(=O)OC(CCCCCCCC)CCCCCCCC', 'modified luciferase', 'Total Flux, Liver', '2.90E+09'),
  ('CCCCCCCCC(CC)OC(=O)CCCCCN(CCO)CCCCCCCC(=O)OC(CCCCCCCC)CCCCCCCC (centres unmarked)', 'modified luciferase', 'Total Flux, Liver', '1.45E+09'),
  ('CCCCCCCCCOC(=O)CCCCCCCN(CCCO)CCCCCCCC(=O)OC(CCCCCCCC)CCCCCCCC', 'modified luciferase', 'Total Flux, Liver', '6.33E+08'),
  ('CCCCCCCCC(CCCCCCCC)OC(=O)CCCCCCCN(CCO)CCCCCCCC', 'modified luciferase', 'Total Flux, Liver', '5.26E+09'),
  ('CCCCCCCCCOC(=O)CCCCCCCN(CCCCCCCC(=O)OC(CCCCCCCC)CCCCCCCC)CCCNC(=O)NC', 'modified luciferase', 'Total Flux, Liver', '1.48E+08');
